# Tgt: T1, PCSK9Δhelix (human, UniProt Q8NBP7 31-152; Q8NBP7 168-692)
# T1 construct: Made by TEV cleavage of human PCSK9 M1-Q692 with an engineered TEV site; The new N-terminus of the catalytic domain is S-A168; also called His-PCSK9Δhelix; PCSK9 lacking the P' helix
# Assay explanation: SPR, Method 3 (SensiQ Pioneer FE, target amine-coupled, gradient injection)
Bridge positions count the residues as written; N and C are the ends. * marks the point of attachment. 5FAM = O=C1OC2(c3ccc(O)cc3Oc3cc(O)ccc32)c2ccc(C(=O)*)cc21
Quantity name: Kd (µM)
Just the number please, in µM, no unit attached.

Input 5FAM-SGSGCRLPWNLQRIGLPC-NH2 (disulfide 5-18 (inferred), Two Cys, disulfide-cyclized) [Compound 34] . Output Kd: 5.28

Reported Kd ( Ac-DLMPWNLVRIGLAR-NH2 [Compound 55] ) = 2.8

Lookup result for Ac-PWNLVRIGLLR-NH2 [Compound 52] ; measured Kd: 2.6

Value of measured Kd for the entry Ac-WNLVRIGLLR-NH2 [Compound 53] : 33.8
